Attribution: patent US11542264B2

Tested on: MDR1
Assay: MDCK permeability and efflux assay
Format: in vitro ADME
Conditions: dog, MDCK-MDR1, apical-to-basolateral, MDR1-transfected MDCK cells
Description: Monolayer systems consist of a tight cell layer grown on a porous support to separate two fluid compartments. […] In monolayer assays, the flux of a compound through the monolayer of cells is measured. The unidirectional flux of the compound of interest is determined by applying it to either the apical or to the basolateral side of the cell layer and monitoring the time resolved redistribution of it between the two compartments. […]
Measure: Papp A→B (×10⁻⁶ cm/s)
Just the number please, in ×10⁻⁶ cm/s, no unit attached.

[in] Can you look up the measured Papp A→B of CC1(F)CN(C(=O)Cn2cnc3c(c(-c4ccc(F)c(Cl)c4)cn3C3CC3)c2=O)C1 [Compound 1] for me?
[out] 32

====

Measured log10 solubility, listed per entry for reference.
Experiment: Aqueous solubility, shake-flask method
Assay type: physicochemical
Conditions: phosphate buffer saline, pH 7.4, aqueous buffer, kinetic from dmso stock, pH 7.4, shake-flask, HPLC-UV
Please keep in mind that the values are log10 of solubility expressed in µM.

Take a look at these entries with their results.
{"Compound": "CC1(F)CN(C(=O)Cn2ccn3cnc(-c4ccc(F)c(C(F)(F)F)c4)c3c2=O)C1 [Example 446]", "log10 solubility": 0.95}
{"Compound": "O=C(Cn1ccn2c(C3CC3)nc(-c3ccc(Cl)c(Cl)c3)c2c1=O)N1CCC(F)C1 (stereo not drawn) [Example 433]", "log10 solubility": 1.48}
{"Compound": "CC1(F)CN(C(=O)Cn2ccn3c(C4CC4)nc(-c4ccc(Cl)c(Cl)c4)c3c2=O)C1 [Example 435]", "log10 solubility": 1.15}
{"Compound": "CC1(F)CN(C(=O)Cn2ccn3cnc(-c4ccc(Cl)c(Cl)c4)c3c2=O)C1 [Example 447]", "log10 solubility": 1.84}
{"Compound": "Cc1nc(-c2ccc(Cl)c(Cl)c2)c2c(=O)n(CC(=O)N3CCC(F)C3)ccn12 (stereo not drawn) [Example 429]", "log10 solubility": 1.41}

[in] # log10 solubility lookup, item CC1(F)CN(C(=O)Cn2ccn3cnc(-c4ccc(F)c(Cl)c4)c3c2=O)C1 [Example 445]
[out] 1.15

[in] Record: CC1(F)CN(C(=O)Cn2ccn3c(C4CC4)nc(-c4ccc(F)c(C(F)(F)F)c4)c3c2=O)C1 [Example 438]
[out] 0.30

[in] Repeat for the following compound: CC1(F)CN(C(=O)Cn2ccn3c(C4CC4)nc(-c4ccc(F)c(Cl)c4)c3c2=O)C1 [Example 436]
[out] 0.48

[in] Note, next up: CC1(F)CN(C(=O)Cn2ccn3c(C4CC4)nc(-c4cnc(Cl)c(Cl)c4)c3c2=O)C1 [Example 437]
[out] 0.85

[in] Another compound to look at: Cc1nc(-c2ccc(F)c(C(F)(F)F)c2)c2c(=O)n(CC(=O)N3CCC(F)C3)ccn12 (stereo not drawn) [Example 427]
[out] 0.85

[in] What do you get for CC1(F)CN(C(=O)Cn2cnc3c(c(-c4ccc(F)c(Cl)c4)cn3C3CC3)c2=O)C1 [Compound 1] ?
[out] 1.46

[in] Entry to check: Cc1cc(-c2nc(C3CC3)n3ccn(CC(=O)N4CC(C)(F)C4)c(=O)c23)ccc1Cl [Example 443]
[out] 1.96

====

Target: hNR2B (Homo sapiens, UniProt Q05586+Q13224)
Construct: expressed in transfected cells
Sequence (Q13224 27-1484, other chains not shown): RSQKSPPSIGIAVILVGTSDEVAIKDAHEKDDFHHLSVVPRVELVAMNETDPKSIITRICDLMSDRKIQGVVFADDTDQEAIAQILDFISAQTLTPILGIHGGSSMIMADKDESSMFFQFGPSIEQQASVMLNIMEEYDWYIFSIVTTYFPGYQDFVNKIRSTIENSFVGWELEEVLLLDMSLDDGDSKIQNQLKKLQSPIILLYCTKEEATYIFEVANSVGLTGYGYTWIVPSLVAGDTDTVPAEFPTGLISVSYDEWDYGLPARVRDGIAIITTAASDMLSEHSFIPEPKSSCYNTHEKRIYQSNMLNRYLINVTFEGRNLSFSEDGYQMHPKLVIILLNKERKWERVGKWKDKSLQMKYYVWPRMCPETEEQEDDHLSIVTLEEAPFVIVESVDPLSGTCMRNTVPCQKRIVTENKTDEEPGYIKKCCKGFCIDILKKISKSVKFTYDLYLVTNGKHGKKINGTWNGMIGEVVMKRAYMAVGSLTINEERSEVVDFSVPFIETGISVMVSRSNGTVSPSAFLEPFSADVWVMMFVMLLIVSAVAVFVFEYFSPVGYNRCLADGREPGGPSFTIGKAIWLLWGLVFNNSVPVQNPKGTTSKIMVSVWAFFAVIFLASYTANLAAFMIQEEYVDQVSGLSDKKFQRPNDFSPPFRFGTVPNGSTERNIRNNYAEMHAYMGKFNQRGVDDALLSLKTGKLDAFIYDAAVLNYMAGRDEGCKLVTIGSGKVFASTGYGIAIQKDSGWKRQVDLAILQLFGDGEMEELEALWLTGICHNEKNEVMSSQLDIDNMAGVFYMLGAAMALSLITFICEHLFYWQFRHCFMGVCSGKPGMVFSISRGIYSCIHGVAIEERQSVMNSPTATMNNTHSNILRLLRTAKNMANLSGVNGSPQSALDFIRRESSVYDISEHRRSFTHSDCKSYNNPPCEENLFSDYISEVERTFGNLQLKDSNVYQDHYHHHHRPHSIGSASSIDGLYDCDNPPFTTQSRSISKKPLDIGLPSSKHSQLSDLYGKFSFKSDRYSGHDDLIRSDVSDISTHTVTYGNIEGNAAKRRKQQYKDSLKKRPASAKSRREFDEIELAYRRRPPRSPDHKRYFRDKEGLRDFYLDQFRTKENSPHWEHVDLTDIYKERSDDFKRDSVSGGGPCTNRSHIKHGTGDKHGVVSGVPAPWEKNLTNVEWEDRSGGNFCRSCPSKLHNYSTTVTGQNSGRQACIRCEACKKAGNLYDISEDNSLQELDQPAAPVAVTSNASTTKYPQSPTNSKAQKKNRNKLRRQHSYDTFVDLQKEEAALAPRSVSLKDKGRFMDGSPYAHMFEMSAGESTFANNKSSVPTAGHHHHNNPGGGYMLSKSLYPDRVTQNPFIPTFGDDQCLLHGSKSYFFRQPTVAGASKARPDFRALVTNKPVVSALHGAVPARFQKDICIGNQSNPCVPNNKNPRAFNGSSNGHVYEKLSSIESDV
Test: Oocyte 2EVC NR2B PAM activity
Type: cell-based
Settings: Table 1; read-out: Oocyte 2EVC NR2B PAM: EC50
From the text: EC50 refers to the concentration of a compound that gives half-maximal response.
Readings of EC50 for the listed compounds
Provide the reading as a plain figure in nM.

{"Compound": "O=C(Cn1cnc2[nH]cc(-c3ccc(F)c(C(F)(F)F)c3)c2c1=O)N1CCC(F)C1 (centres unmarked)", "EC50, nM": 1500}

Turning now to a further record.
[in] // lookup EC50 for `O=C(Cn1cnc2[nH]cc(-c3ccc(Cl)c(C(F)(F)F)c3)c2c1=O)N1C[C@@H](F)[C@@H](F)C1`
[out] 1190

====

Molecular target: UniProt:Q14957
Sequence (Q14957 20-1233, other chains not shown): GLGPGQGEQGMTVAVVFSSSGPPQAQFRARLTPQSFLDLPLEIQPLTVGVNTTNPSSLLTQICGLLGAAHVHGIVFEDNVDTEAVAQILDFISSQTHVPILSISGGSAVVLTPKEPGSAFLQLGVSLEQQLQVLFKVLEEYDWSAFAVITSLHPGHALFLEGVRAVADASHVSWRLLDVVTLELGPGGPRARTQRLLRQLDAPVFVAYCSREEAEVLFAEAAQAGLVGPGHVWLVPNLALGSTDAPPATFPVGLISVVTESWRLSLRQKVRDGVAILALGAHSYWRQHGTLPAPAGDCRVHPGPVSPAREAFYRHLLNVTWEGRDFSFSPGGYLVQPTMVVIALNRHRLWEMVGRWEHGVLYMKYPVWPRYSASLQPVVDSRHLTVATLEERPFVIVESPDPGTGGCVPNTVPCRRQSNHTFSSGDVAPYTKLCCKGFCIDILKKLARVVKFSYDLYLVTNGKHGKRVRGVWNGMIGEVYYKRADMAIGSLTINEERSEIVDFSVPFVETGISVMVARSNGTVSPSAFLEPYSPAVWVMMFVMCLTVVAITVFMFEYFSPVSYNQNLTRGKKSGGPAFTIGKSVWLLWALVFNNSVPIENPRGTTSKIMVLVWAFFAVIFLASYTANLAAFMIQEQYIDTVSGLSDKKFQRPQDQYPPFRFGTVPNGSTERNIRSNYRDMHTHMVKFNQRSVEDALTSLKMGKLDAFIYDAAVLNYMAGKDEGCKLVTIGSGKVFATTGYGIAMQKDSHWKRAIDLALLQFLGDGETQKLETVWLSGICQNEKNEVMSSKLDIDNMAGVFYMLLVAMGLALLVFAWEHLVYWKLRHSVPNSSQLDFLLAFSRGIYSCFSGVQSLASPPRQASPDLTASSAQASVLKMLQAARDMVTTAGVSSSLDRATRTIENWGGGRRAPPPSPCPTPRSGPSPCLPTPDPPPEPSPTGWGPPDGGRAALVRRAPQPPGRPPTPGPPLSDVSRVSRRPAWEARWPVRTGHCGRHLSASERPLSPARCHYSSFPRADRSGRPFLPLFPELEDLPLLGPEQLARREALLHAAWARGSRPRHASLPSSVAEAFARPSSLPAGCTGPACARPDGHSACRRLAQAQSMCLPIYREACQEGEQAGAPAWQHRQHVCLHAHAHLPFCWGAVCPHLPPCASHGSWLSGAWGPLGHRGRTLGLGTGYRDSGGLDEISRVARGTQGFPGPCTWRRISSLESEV
Experiment: Oocyte 2EVC NR2C PAM activity
Settings: oocytes expressing hNR2C, 10 μM glutamate and 10 μM glycine
Measure: EC50 (nM)
The reply should contain only the number, in nM.

[in] Consider the molecule shown here: `CC1(F)CN(C(=O)Cn2cnc3c(c(-c4ccc(F)c(Cl)c4)cn3C3CC3)c2=O)C1` What is its recorded EC50?
[out] 1200

====

Assay: Human liver microsome stability
Assay type: in vitro ADME
Conditions: human liver microsomes; read-out: HLM mCLint
Measure: microsomal CLint (µL/min/mg)
# unit: µL/min/mg | format: bare number

[in] Could you share which microsomal CLint value was measured for `CC1(F)CN(C(=O)Cn2cnc3c(c(-c4ccc(F)c(Cl)c4)cn3C3CC3)c2=O)C1` ?
[out] 27.3

====

Assay: Rat liver microsome stability
Assay type: in vitro ADME
Conditions: rat liver microsomes; read-out: RLM mCLint
Measure: microsomal CLint

[in] Which microsomal CLint value is on record for CC1(F)CN(C(=O)Cn2cnc3c(c(-c4ccc(F)c(Cl)c4)cn3C3CC3)c2=O)C1 [Compound 1] ?
[out] < 5 µL/min/mg

====

Measured clearance, listed per entry for reference.
Assay: Rat IV pharmacokinetic study, in vivo clearance
Numeric only. Scale: mL/min/kg

Reference set (4 entries):
{"Molecule": "CC1(F)CN(C(=O)Cn2ccc3scc(-c4ccc(Cl)c(Cl)c4)c3c2=O)C1", "Measure": "clearance", "Unit tag": "mL/min/kg", "Result number": 26.9}
{"Molecule": "CC1(F)CN(C(=O)Cn2ccc3scc(-c4ccc(F)c(Cl)c4)c3c2=O)C1", "Measure": "clearance", "Unit tag": "mL/min/kg", "Result number": 27.8}
{"Molecule": "CC1(F)CN(C(=O)Cn2cnc3c(c(-c4ccc(F)c(Cl)c4)cn3C3CC3)c2=O)C1", "Measure": "clearance", "Unit tag": "mL/min/kg", "Result number": 7.4}
{"Molecule": "O=C(Cn1ccc2scc(-c3ccc(F)c(Cl)c3)c2c1=O)N1CCC(F)C1 (centres unmarked)", "Measure": "clearance", "Unit tag": "mL/min/kg", "Result number": 35.5}

# next molecule below
[in] Fill blank: measured clearance of the molecule `CC1(F)CN(C(=O)Cn2ccc3c(c(-c4ccc(F)c(Cl)c4)cn3C3CC3)c2=O)C1` is ____.
[out] 22.2
